The reported measurements were obtained from ChEMBL document CHEMBL1136452.

Please provide measured MIC for the entries that follow.
tested on: Enterococcus faecalis; experiment: In vitro antibacterial activity against vancomycin-susceptible E. f. 153 (Enterococcus faecalis ATCC 29212); assay type: functional
One number for each entry, in µg/mL.

Past entries and their recorded results:
[[record]]
chemical_string = "CC(=O)NNC[C@H]1CN(c2ccc(OCCN3CCOCC3)c(F)c2)C(=O)O1"
readout_type = "MIC"
reported = 16

[[record]]
chemical_string = "CO/C(S)=N/NC[C@H]1CN(c2ccc(OCCN3CCOCC3)c(F)c2)C(=O)O1"
readout_type = "MIC"
reported = 4

[[record]]
chemical_string = "C/C(S)=N/NC[C@H]1CN(c2ccc(OCCN3CCOCC3)c(F)c2)C(=O)O1"
readout_type = "MIC"
reported = 2


Respectfully, I request MIC for each entry included below.
1. CC(=O)NNC[C@H]1CN(c2ccc(OCCO)c(F)c2)C(=O)O1
2. C/C(S)=N/NC[C@H]1CN(c2ccc(OCCN3CCCCC3)c(F)c2)C(=O)O1
3. CC(=O)NNC[C@H]1CN(c2ccc(OCCOCc3ccccc3)c(F)c2)C(=O)O1
4. CO/C(S)=N/NC[C@H]1CN(c2ccc(OCCN3CCSCC3)c(F)c2)C(=O)O1
5. CC(=O)NNC[C@H]1CN(c2ccc(OCCN3CCSCC3)c(F)c2)C(=O)O1
6. C/C(S)=N/NC[C@H]1CN(c2ccc(OCCN3CCSCC3)c(F)c2)C(=O)O1

1. 16
2. 4
3. 32
4. 2
5. 16
6. 2

Notebook: pull reported MIC for Enterococcus faecalis, entry `CC(=O)NNC[C@H]1CN(c2ccc(OCCN3CCCCC3)c(F)c2)C(=O)O1` 64

----------
test system: Enterococcus faecium; assay: In vitro antibacterial activity against vancomycin-resistant Enterococcus faecium 154 (Enterococcus faecium ATCC 12202); format: functional
Readout Type: MIC (µg/mL)
One number for each entry, in µg/mL.

[[record]]
chemical_string = "CC(=O)NNC[C@H]1CN(c2ccc(OCCN3CCOCC3)c(F)c2)C(=O)O1"
unit_annotation = "µg/mL"
reported = 4


Entry `C/C(S)=N/NC[C@H]1CN(c2ccc(OCCN3CCOCC3)c(F)c2)C(=O)O1` has what MIC? 2

----------
system: Enterococcus faecalis; assay: In vitro antibacterial activity against vancomycin-susceptible E. f. 034 (Enterococcus faecalis ATCC 29212); format: functional
Readout Type: MIC (mg/L)
Give bare numbers, in mg/L.

[[record]]
chemical_string = "CC(=O)NNC[C@H]1CN(c2ccc(OCCN3CCOCC3)c(F)c2)C(=O)O1"
assay_system = "Enterococcus faecalis"
unit_annotation = "mg/L"
reported = 16

[[record]]
chemical_string = "CC(=O)NNC[C@H]1CN(c2ccc(OCCO)c(F)c2)C(=O)O1"
assay_system = "Enterococcus faecalis"
unit_annotation = "mg/L"
reported = 16

[[record]]
chemical_string = "CC(=O)NNC[C@H]1CN(c2ccc(OCCN3CCCCC3)c(F)c2)C(=O)O1"
assay_system = "Enterococcus faecalis"
unit_annotation = "mg/L"
reported = 64

[[record]]
chemical_string = "CO/C(S)=N/NC[C@H]1CN(c2ccc(OCCN3CCSCC3)c(F)c2)C(=O)O1"
assay_system = "Enterococcus faecalis"
unit_annotation = "mg/L"
reported = 1

[[record]]
chemical_string = "C/C(S)=N/NC[C@H]1CN(c2ccc(OCCN3CCCCC3)c(F)c2)C(=O)O1"
assay_system = "Enterococcus faecalis"
unit_annotation = "mg/L"
reported = 8


We now examine a further molecule.
Any idea what MIC was measured for `CC(=O)NNC[C@H]1CN(c2ccc(OCCN3CCSCC3)c(F)c2)C(=O)O1` ? 16
